Each recorded value in this set is attributed to patent US20240252488A1.

What Degradation assay (Degradation %) 10 μM was measured for each of the following?
tested.target: UniProt Q8NB16
Sequence (Q8NB16 whole entry): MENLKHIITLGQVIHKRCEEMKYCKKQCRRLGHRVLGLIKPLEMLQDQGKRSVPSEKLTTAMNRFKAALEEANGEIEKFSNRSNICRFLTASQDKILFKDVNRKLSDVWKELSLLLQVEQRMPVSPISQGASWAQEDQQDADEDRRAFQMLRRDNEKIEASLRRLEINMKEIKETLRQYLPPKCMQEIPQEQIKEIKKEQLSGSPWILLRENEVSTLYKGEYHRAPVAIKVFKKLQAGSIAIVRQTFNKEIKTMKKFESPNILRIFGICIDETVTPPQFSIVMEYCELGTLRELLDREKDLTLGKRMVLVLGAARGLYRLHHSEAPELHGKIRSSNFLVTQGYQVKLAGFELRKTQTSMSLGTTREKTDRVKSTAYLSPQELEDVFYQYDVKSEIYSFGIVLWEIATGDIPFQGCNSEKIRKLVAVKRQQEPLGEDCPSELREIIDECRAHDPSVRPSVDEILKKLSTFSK
experiment: MLKL degradation assay in HepG2 cell line (western blot)
Format: cell-based
Design: endogenous in cells; host or cells: HepG2 or HaCaT
condition.summary: compound 10 μM; cell line not given
Protocol: MLKL degradation ability was evaluated in the following method. […] For protein preparation after incubation, cells were washed with 1×TBST, and 60 μL of RIPA lysis buffer containing Halt™ Protease and Phosphatase Inhibitor Cocktail was dispensed into each well. […] For protein quantification, after dispensing sample and BCA (0-4 mg/ml) in a 96 well plate, 100 μL of BCA was dispensed and reacted in a 37° C. incubator for 30 minutes. […]
One number for each entry, in %.

Known results for compounds:
What the record says about Nc1ncc(-c2cnn(C3CCN(CCCN4CCN(C(=O)COc5ccc6nnn(C7CCC(=O)NC7=O)c(=O)c6c5)CC4)CC3)c2)nc1C(=O)O[C@@H](C(=O)Nc1ccc(F)cc1)c1ccccc1 (some centres unmarked) : Degradation assay (Degradation %) 10 μM is 85.83

What the record says about Nc1ncc(-c2cnn(C3CCN(CCOCCNc4ccc5c(c4)C(=O)N(C4CCC(=O)NC4=O)C5=O)CC3)c2)nc1C(=O)O[C@@H](C(=O)Nc1ccc(F)cc1)c1ccccc1 (some centres unmarked) : Degradation assay (Degradation %) 10 μM is 47.86

Please go through the list and note Degradation assay (Degradation %) 10 μM for each compound.
1. Nc1ncc(-c2cnn(C3CCN(CCCCCCCCCCNc4ccc5nnn(C6CCC(=O)NC6=O)c(=O)c5c4)CC3)c2)nc1C(=O)O[C@@H](C(=O)Nc1ccc(F)cc1)c1ccccc1 (some centres unmarked)
2. Nc1ncc(-c2cnn(C3CCN(CCC4CCN(C(=O)COc5ccc6nnn(C7CCC(=O)NC7=O)c(=O)c6c5)CC4)CC3)c2)nc1C(=O)OC(C(=O)Nc1ccc(F)cc1)c1ccccc1 (centres unmarked)

1. 61.56
2. 71.04

What the record says about Nc1ncc(-c2cnn(C3CCN(CCOCCNC(=O)C4CN(c5ccc6c(c5)C(=O)N(C5CCC(=O)NC5=O)C6=O)C4)CC3)c2)nc1C(=O)O[C@@H](C(=O)Nc1ccc(F)cc1)c1ccccc1 (some centres unmarked) : Degradation assay (Degradation %) 10 μM is 43.64
